Cited source for all entries: patent US20260183320A1

tested on: wild-type p53-expressing (H460) cell line; assay: CTG cell proliferation assay, H460 cell line; type: cell-based; conditions: Homo sapiens, NCI-H460, H460; with 800 nM adavosertib (2 h pretreatment), 72 h; read-out: IC50
measurement.type: IC50

smiles.data: C[C@H](OP(=O)(N1CC1)N1CC1)c1ccc([N+](=O)[O-])c(Oc2cccc(C(=O)N(C)C)c2)c1
system.name: wild-type p53-expressing (H460) cell line
result: 0.15 nM

---

test system: wild-type p53-expressing (H460) cell line; test: CTG cell proliferation assay, H460 cell line; assay type: cell-based; conditions: Homo sapiens, NCI-H460, H460; with 0.05 nM palbociclib (2 h pretreatment), 72 h; read-out: IC50
pIC50: −log10 of the molar value.

smiles.data: C[C@H](OP(=O)(N1CC1)N1CC1)c1ccc([N+](=O)[O-])c(Oc2cccc(C(=O)N(C)C)c2)c1
system.name: wild-type p53-expressing (H460) cell line
pIC50: 9.42
